# Test system: KB
# Assay comment: in vitro anticancer activity against cultured KB(epidermoid) human tumor cell line
# Assay type: functional, cell-based
Observable: IC50 (µg/mL)

Compound	Test system	Qualifier	Recorded number
CO[C@@]12[C@H](COC(N)=O)C3=C(C(=O)C(C)=C(NCc4ccc(CNC5=C(C)C(=O)C6=C(C5=O)[C@@H](COC(N)=O)[C@@]5(OC)[C@H]7NC7CN65)cc4)C3=O)N1CC1N[C@@H]12 (stereo not given in full)	KB	>	1
COC1=C(C)C(=O)C2=C(C1=O)[C@@H](COC(N)=O)[C@@]1(OC)[C@H]3N[C@H]3CN21	KB	=	0.008
CO[C@@]12[C@H](COC(N)=O)C3=C(C(=O)C(C)=C(N)C3=O)N1C[C@H]1[C@@H]2N1C(=O)CCCC(=O)N1[C@H]2[C@@H]1CN1C3=C(C(=O)C(N)=C(C)C3=O)[C@@H](COC(N)=O)[C@@]21OC	KB	>	1
CO[C@@]12[C@H](COC(N)=O)C3=C(C(=O)C(C)=C(NCCCNCCCNC4=C(C)C(=O)C5=C(C4=O)[C@@H](COC(N)=O)[C@@]4(OC)[C@H]6NC6CN54)C3=O)N1CC1N[C@@H]12 (stereo not given in full)	KB	>	1
CO[C@@]12[C@H](COC(N)=O)C3=C(C(=O)C(C)=C(Nc4ccc(CCc5ccc(NC6=C(C)C(=O)C7=C(C6=O)[C@@H](COC(N)=O)[C@@]6(OC)[C@H]8NC8CN76)cc5)cc4)C3=O)N1CC1N[C@@H]12 (stereo not given in full)	KB	=	0.215

Each recorded value in this set is attributed to ChEMBL document CHEMBL1134630.
